- assayed_system: recombinant human GST-SYK (Homo sapiens, UniProt P43405)
- method: Homogeneous Time-Resolved Fluorescence (HTRF) assay for the recombinant human SYK enzyme
- run_conditions: recombinant human GST-SYK 5 pM, ATP 25 μM, 10-dose titration; read-out: rhSYK Activity (IC50)
Quick reference: IC50 of the listed items.

Worked cases, IC50 given:
>>> df
                                   compound   endpoint_result
0  Cc1cc(Nc2nccc(OC3CCNCC3)n2)cc(-c2cnc(N3CCCNC(=O)C3)s2)c1 [Example 215]          ≤ 100 nM
1  CCCCN(CCO)c1ncc(-c2cccc(Nc3nccc(C(F)(F)F)n3)c2)s1 [Example 6]          ≤ 100 nM
2  FC(F)(F)c1ccnc(Nc2cccc(-c3cnc(NCc4cccc(N5CCCCC5)c4)s3)c2)n1 [Example 57]  1000 to 10000 nM
3  Cc1cnc(Nc2cc(C)cc(-c3cnc(N4CCCNC(=O)C4)s3)c2)nc1 [Example 203]          ≤ 100 nM

If you can, please state the reported IC50 value of Cc1cc(Nc2nccc(C#N)n2)cc(-c2cnc(N3CCCNC(=O)C3)s2)c1 [Example 204] .
≤ 100 nM

// repeat for NC1CCN(c2ncc(-c3cccc(Nc4nccc(C(F)(F)F)n4)c3)s2)C1 (centres unmarked) [Example 162] and report
≤ 100 nM

---

Quick reference: pIC50 of the listed items.
- assayed_system: recombinant human GST-SYK (Homo sapiens)
- method: Homogeneous Time-Resolved Fluorescence (HTRF) assay for the recombinant human SYK enzyme
- run_conditions: recombinant human GST-SYK 5 pM, ATP 25 μM, 10-dose titration; read-out: rhSYK Activity (IC50)
pIC50: −log10 of the molar value.

Worked cases, pIC50 given:
>>> df
                                   compound  value_type  endpoint_result
0  CC(CO)Nc1ncc(-c2cccc(Nc3nccc(C(F)(F)F)n3)c2)s1 (stereo not shown)       pIC50           ≥ 7.00
1  OCC(CO)Nc1ncc(-c2cccc(Nc3nccc(C(F)(F)F)n3)c2)s1       pIC50           ≥ 7.00
2  O=C(O)C1CCN(c2nc(-c3cccc(Nc4nccc(C(F)(F)F)n4)c3)cs2)CC1       pIC50     6.00 to 7.00

Let us move to another entry and its pIC50.
If you can, please state the reported pIC50 value of Cc1cc(Nc2ncc(F)cn2)cc(-c2cnc(N3CCCNC(=O)C3)s2)c1 .
≥ 7.00

---

- assayed_system: recombinant human GST-SYK (Homo sapiens, UniProt P43405)
- Construct: purchased Carna Biosciences 08-176
- method: Homogeneous Time-Resolved Fluorescence (HTRF) assay for the recombinant human SYK enzyme
- Format: biochemical
- run_conditions: recombinant human GST-SYK 5 pM, ATP 25 μM, 10-dose titration; read-out: rhSYK Activity (IC50)
pIC50: −log10 of the molar value.
Quick reference: pIC50 of the listed items.

Worked cases, pIC50 given:
>>> df
                                   compound  endpoint_result
0  Cn1cnc(CNc2ncc(-c3cccc(Nc4nccc(C(F)(F)F)n4)c3)s2)c1 [Example 81]           ≥ 7.00
1  NC(=O)C1CCN(c2nc(-c3cccc(Nc4nccc(C(F)(F)F)n4)c3)cs2)CC1 [Example 230]     6.00 to 7.00
2  O=C1OCCN1c1ncc(-c2cccc(Nc3nccc(C(F)(F)F)n3)c2)s1 [Example 175]           ≥ 7.00
3  Cc1cc(Nc2nccc(C(F)(F)F)n2)cc(-c2sc(N3CCCNC(=O)C3)nc2Cl)c1 [Example 228]           ≥ 7.00
4  C=CCOC(=O)N1CCN(c2ncc(-c3cccc(Nc4nccc(C(F)(F)F)n4)c3)s2)C(CO)C1 (centres unmarked) [Example 126]     6.00 to 7.00
5  CN1CCC(CNc2ncc(-c3cccc(Nc4nccc(C(F)(F)F)n4)c3)s2)C1 (centres unmarked) [Example 53]           ≥ 7.00
6  COc1ccnc(Nc2cc(C)cc(-c3sc(N4CCCNC(=O)C4)nc3Cl)c2)n1 [Example 227]           ≥ 7.00

Let us move to another entry and its pIC50.
If you can, please state the reported pIC50 value of Cc1cc(Nc2nccc(OCc3ccccc3)n2)cc(-c2cnc(N3CCCNC(=O)C3)s2)c1 [Example 208] .
≥ 7.00

The measurements presented in this section are drawn from patent US8735417B2.
